test system: HepG2; assay: GSK_TCMDC: Percent inhibition of human HepG2 cell line. Test compounds present at 10uM.; type: functional
endpoint: Inhibition (%)
Write the answer as a number in %, unit excluded.

Recorded result, `CC(C)(CNCc1cccc(Oc2cccc(C(F)(F)F)c2)c1)c1nc(-c2ccnc(N)n2)c(-c2ccc(Cl)c(O)c2)[nH]1.Cl` , Inhibition: 23

Recorded result, `CCN1CCN(c2cc(C)c3cc(NC(=O)c4ccc(Br)o4)ccc3n2)CC1` , Inhibition: 0

Recorded result, `O=C(O)C(F)(F)F.Oc1ccc(CCNc2nc(NCc3cccc(OCc4cccc(F)c4)c3)nc(N3CCNCC3)n2)cc1` , Inhibition: 27

Recorded result, `CCc1cc2c(cc1OCCN(C)C)N(C(=O)Nc1ccc(-c3ccncc3)c(Cl)c1)CC2` , Inhibition: 18

Recorded result, `O=C(Nc1cccc(C(F)(F)F)c1)Nc1cc(F)c(F)cc1Cl` , Inhibition: 0

Recorded result, `CC1CCN(C(=O)[C@H](Cc2c[nH]c3ccccc23)NS(=O)(=O)c2ccc(Cl)cc2)CC1` , Inhibition: 0

Recorded result, `Cc1ccc(CON2C(N)=NC(N)=NC2(C)C)c(Cl)c1.Cc1ccc(CON2C(N)=NC(N)=NC2(C)C)cc1Cl` , Inhibition: 67

Recorded result, `COc1ccc2nc3cc(Cl)ccc3c(NCCN(C)C)c2c1` , Inhibition: 4

Recorded result, CC(=O)c1ccccc1C(=O)N1CCOc2ccc(C(O)C(c3ccccc3)c3ccccc3)cc2C1 (centres undefined) , Inhibition: 10

Source listed as ChEMBL document CHEMBL1157539.
